B1: CCNC (parent)
chain: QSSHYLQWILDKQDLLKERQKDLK

Variants of: B1
protocol.details: protein stability index of a GFP-peptide fusion (GPS, HEK-293T) (PSI 1-6); higher = more stable;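 further: lentivirally expressed fusions sorted by FACS into six bins by GFP to DsRed ratio, PSI derived from sequencing read proportions per bin multiplied by bin number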
condition: c terminus: a fixed tail appended
reported.metric: protein stability index
Output: the number by itself.

Example variants with recorded protein stability index:
{"columns": ["record.sequence", "measured"],
 "data": [
  ["QSSHYLQWIRDKQDLLKERQKDLK [L10R]", 3.61],
  ["WSSHYLQWILDKQDLLKERQKDLK [Q1W]", 1.44],
  ["QSSHYLQWILDKQDVLKERQKDLK [L15V]", 3.11],
  ["LSSHYLQWILDKQDLLKERQKDLK [Q1L]", 2.78],
  ["QSHHYLQWILDKQDLLKERQKDLK [S3H]", 2.95]
]}

Give its protein stability index value. Item: ESSHYLQWILDKQDLLKERQKDLK [Q1E]
2.72

Using the record for QSSHYLQWILDKQDLLKERQKELK [D22E] , report its protein stability index.
3.19

Given QSSHYLQWILDKQDLLKCRQKDLK [E18C] , state its recorded protein stability index.
2.28

Quick one: protein stability index for QSSHYLQWILDKQHLLKERQKDLK [D14H] ?
2.83

Requested read-out: protein stability index. Entry: QSSHYLLWILDKQDLLKERQKDLK [Q7L]
2.22

Dear colleague, I am looking for the recorded protein stability index of the following variant: QSSHYLQWILDKQDLKKERQKDLK [L16K]
3.54

So what's the measured protein stability index for this one? QSSHYLQWILDKQDLLKERQKDLW [K24W]
1.78

Entry QSSHYLQWILDKHDLLKERQKDLK [Q13H] : reported protein stability index = ?
2.5

Look up protein stability index: QSSHYLQWILDKQTLLKERQKDLK [D14T]
3.36

Given QGSHYLQWILDKQDLLKERQKDLK [S2G] , state its recorded protein stability index.
2.78

Please look up its protein stability index: QSSHYLQWILDKQDLLKERQKCLK [D22C]
2.54

Which protein stability index value is on record for QSSHYLQWILDKQDLLKERQKGLK [D22G] ?
2.6

Consider the variant shown here: QSSHYLQWILDHQDLLKERQKDLK [K12H] What is its recorded protein stability index?
2.83

Can you look up the measured protein stability index of QSAHYLQWILDKQDLLKERQKDLK [S3A] for me?
3.9
